Assay: Determination of the hygroscopicity (weight increase in a stability chamber)
Type: physicochemical
Conditions: Table 6; time 6 h; 25° C., 65% relative air humidity
valueKind: Mean mass increase (%)

>>> recordedvalue("O=C([O-])CN(CCN(CC(=O)[O-])CC(=O)[O-])CCN(CC(=O)[O-])CC(=O)[O-].[Na+].[Na+].[Na+].[Zn+2] [Amorph I]")
2.35
>>> recordedvalue("O=C([O-])CN(CCN(CC(=O)[O-])CC(=O)[O-])CCN(CC(=O)[O-])CC(=O)[O-].[Na+].[Na+].[Na+].[Zn+2] [Form II, A]")
1.49
>>> recordedvalue("O=C([O-])CN(CCN(CC(=O)[O-])CC(=O)[O-])CCN(CC(=O)[O-])CC(=O)[O-].[Na+].[Na+].[Na+].[Zn+2] [Form I]")
1.34
>>> recordedvalue("O=C([O-])CN(CCN(CC(=O)[O-])CC(=O)[O-])CCN(CC(=O)[O-])CC(=O)[O-].[Na+].[Na+].[Na+].[Zn+2] [Amorph Il]")
2.61
>>> recordedvalue("O=C([O-])CN(CCN(CC(=O)[O-])CC(=O)[O-])CCN(CC(=O)[O-])CC(=O)[O-].[Na+].[Na+].[Na+].[Zn+2] [Form II, B]")
1.97

---

Test: Determination of the hygroscopicity (weight increase in a stability chamber)
Type: physicochemical
Conditions: Table 6; time 8 h; 25° C., 65% relative air humidity
Protocol: Here, the samples used were each subjected to the same pre-drying process (cf. Examples 3 and 4). The samples were exposed in each case for the time period stated in the Table at 25° C. and an air humidity of 65% relative air humidity. The hygroscopicity of Zn-DTPA was checked by measuring the weight increase in a controlled environment. […]
valueKind: Mean mass increase (%)

>>> recordedvalue("O=C([O-])CN(CCN(CC(=O)[O-])CC(=O)[O-])CCN(CC(=O)[O-])CC(=O)[O-].[Na+].[Na+].[Na+].[Zn+2] [Form II, A]")
1.84
>>> recordedvalue("O=C([O-])CN(CCN(CC(=O)[O-])CC(=O)[O-])CCN(CC(=O)[O-])CC(=O)[O-].[Na+].[Na+].[Na+].[Zn+2] [Amorph Il]")
3.26
>>> recordedvalue("O=C([O-])CN(CCN(CC(=O)[O-])CC(=O)[O-])CCN(CC(=O)[O-])CC(=O)[O-].[Na+].[Na+].[Na+].[Zn+2] [Amorph I]")
2.95
>>> recordedvalue("O=C([O-])CN(CCN(CC(=O)[O-])CC(=O)[O-])CCN(CC(=O)[O-])CC(=O)[O-].[Na+].[Na+].[Na+].[Zn+2] [Form II, B]")
2.43
>>> recordedvalue("O=C([O-])CN(CCN(CC(=O)[O-])CC(=O)[O-])CCN(CC(=O)[O-])CC(=O)[O-].[Na+].[Na+].[Na+].[Zn+2] [Form I]")
1.64

---

Each entry below lists one item and its recorded Mean mass increase value.
Experiment: Determination of the hygroscopicity (weight increase in a stability chamber)
Type: physicochemical
Conditions: Table 6; time 4 h; 25° C., 65% relative air humidity
valueKind: Mean mass increase

>>> recordedvalue("O=C([O-])CN(CCN(CC(=O)[O-])CC(=O)[O-])CCN(CC(=O)[O-])CC(=O)[O-].[Na+].[Na+].[Na+].[Zn+2] [Amorph Il]")
"1.73%"
>>> recordedvalue("O=C([O-])CN(CCN(CC(=O)[O-])CC(=O)[O-])CCN(CC(=O)[O-])CC(=O)[O-].[Na+].[Na+].[Na+].[Zn+2] [Form II, B]")
"1.29%"
>>> recordedvalue("O=C([O-])CN(CCN(CC(=O)[O-])CC(=O)[O-])CCN(CC(=O)[O-])CC(=O)[O-].[Na+].[Na+].[Na+].[Zn+2] [Form II, A]")
"1.00%"
>>> recordedvalue("O=C([O-])CN(CCN(CC(=O)[O-])CC(=O)[O-])CCN(CC(=O)[O-])CC(=O)[O-].[Na+].[Na+].[Na+].[Zn+2] [Form I]")
"0.92%"
>>> recordedvalue("O=C([O-])CN(CCN(CC(=O)[O-])CC(=O)[O-])CCN(CC(=O)[O-])CC(=O)[O-].[Na+].[Na+].[Na+].[Zn+2] [Amorph I]")
"1.56%"
